Numbers sourced from ChEMBL document CHEMBL2407056.

# TEST_SUMMARY: Kinetic solubility of the compound in phosphate buffer at pH 6.5 by nephelometry
# Assay type: physicochemical
# RUN_PARAMETERS: read-out: Kinetic_solubility
MEASURED_QUANTITY: solubility kinetic (µg/mL)

Past entries and their recorded results:
In [3]: df
Out[3]:
                               smiles_input   measured_quantity  recorded_number
0  O=C(Nc1ccc(Cl)c(-c2nc3ncccc3o2)c1)c1ccco1  solubility kinetic              1.6
1    Cc1ccoc1C(=O)Nc1cccc(-c2nc3ncccc3o2)c1  solubility kinetic              3.1
2    Cc1ccc(NC(=O)c2ccoc2)cc1-c1nc2ncccc2o1  solubility kinetic              6.3
3  O=C(Nc1ccc(F)c(-c2nc3ncccc3o2)c1)c1cnco1  solubility kinetic              6.3

[A] O=C(Nc1ccc(F)c(-c2nc3ncccc3o2)c1)c1ccoc1
[B] Cc1ccoc1C(=O)Nc1ccc(F)c(-c2nc3ncccc3o2)c1
[C] O=C(Nc1ccc(F)c(-c2nc3ncccc3o2)c1)c1cscn1
stdin: Rank entries according to their solubility kinetic, from the largest number down. // ordering of labels required in reply
stdout: A, C, B

* * *

# TEST_SUMMARY: Intrinsic clearance in human liver microsomes at 1 uM after 60 mins by LC-MS analysis
# Type: ADME, Microsome
# RUN_PARAMETERS: read-out: CLH
MEASURED_QUANTITY: microsomal CLint at 1 µM (µL/min/mg)

                               smiles_input         measured_quantity  unit_of_measure  recorded_number
0  Cc1ccoc1C(=O)Nc1ccc(F)c(-c2nc3ncccc3o2)c1  microsomal CLint at 1 µM        µL/min/mg              202

[1] Cc1ccc(NC(=O)c2occc2C)cc1-c1nc2ncccc2o1
[2] O=C(Nc1ccc(F)c(-c2nc3ncccc3o2)c1)c1cscn1
[3] O=C(Nc1ccc(F)c(-c2nc3ncccc3o2)c1)c1ccoc1
stdin: Put the molecules in ascending order of microsomal CLint at 1 µM. Quick reminder: the answer is the labels in the order asked.
stdout: 2, 3, 1

[1] Cc1ccc(NC(=O)c2ccoc2)cc1-c1nc2ncccc2o1
[2] O=C(Nc1ccc(Cl)c(-c2nc3ncccc3o2)c1)c1ccco1
stdin: Determine, for 1 and 2 , which has the greater value of microsomal CLint at 1 µM. Write the label of whichever entry you select.
stdout: 2
(2: 258 µL/min/mg, 1: 176 µL/min/mg)

[P] Cc1ccoc1C(=O)Nc1cccc(-c2nc3ncccc3o2)c1
[Q] O=C(Nc1ccc(F)c(-c2nc3ncccc3o2)c1)c1cnco1
stdin: // which entry reports the smaller microsomal CLint at 1 µM, P or Q ? State your choice using its label.
stdout: Q

* * *

# TEST_SUMMARY: Selectivity index, ratio of IC50 for HEK293 cells to IC50 for Trypanosoma brucei brucei 427 bloodstream form
# Assay type: toxicity, cell-based
# RUN_PARAMETERS: human, read-out: Ratio IC50
Some compounds, each annotated with its measured selectivity ratio.
Lab note: record the figure alone, no unit after it.

>>> print(df.to_string())
                               smiles_input  recorded_number
0    Cc1ccc(-c2nc3ncccc3o2)cc1NC(=O)c1ccco1               13
1  O=C(Nc1cccc(-c2nc3ncccc3[nH]2)c1)c1ccco1               54
2  O=C(Nc1ccc(F)c(-c2nc3ncccc3o2)c1)c1cscn1              110
3     O=C(Nc1cccc(-c2nc3ncccc3o2)c1)c1ccoc1               89

--- query ---
Item: O=C(Nc1cccc(-c2nc3ncc(-c4ccccc4)cc3o2)c1)c1ccco1 | selectivity ratio: 84

* * *

Listed compounds paired with reported selectivity ratio
# TEST_SUMMARY: Selectivity index, ratio of IC50 for HEK293 cells to IC50 for Trypanosoma brucei brucei 427 bloodstream form
# Assay type: toxicity, cell-based
# RUN_PARAMETERS: human, read-out: Ratio IC50
Write the value as a bare number.

In [3]: df
Out[3]:
                              smiles_input  recorded_number
0  COc1ccc(-c2nc3ncccc3o2)cc1NC(=O)c1ccco1               74
1   Cc1ccc(NC(=O)c2cscn2)cc1-c1nc2ncccc2o1               32
2   Cc1ccc(NC(=O)c2ccoc2)cc1-c1nc2ncccc2o1              103

Shifting focus to the compound that follows.
GET /value?item= Cc1ccoc1C(=O)Nc1cccc(-c2nc3ncccc3o2)c1 &field=selectivity ratio returns 115

* * *

# TEST_SUMMARY: Kinetic solubility of the compound in phosphate buffer at pH 2 by nephelometry
# Format: physicochemical
# RUN_PARAMETERS: read-out: Kinetic_solubility
MEASURED_QUANTITY: solubility kinetic (µg/mL)

[1] O=C(Nc1ccc(F)c(-c2nc3ncccc3o2)c1)c1ccoc1
[2] Cc1ccoc1C(=O)Nc1ccc(F)c(-c2nc3ncccc3o2)c1
stdin: Which record shows the lower solubility kinetic: the first, 1 , or the second, 2 ? Identify your selection by its label.
stdout: 2

* * *

# System: L6
# TEST_SUMMARY: Cytotoxicity against rat L6 cells after 70 hrs by Alamar blue assay
# Assay type: cell-based
# RUN_PARAMETERS: L6, 70 h
MEASURED_QUANTITY: IC50 (µM)
Numbers only; they are read as µM.

Please review the following examples before continuing.
In [3]: df
Out[3]:
                               smiles_input  unit_of_measure  recorded_number
0  O=C(Nc1ccc(Cl)c(-c2nc3ncccc3o2)c1)c1ccco1               µM               23
1  O=C(Nc1ccc(Cl)c(-c2nc3ncccc3o2)c1)c1ccccc1               µM               51
2  O=C(Nc1ccc(Cl)c(-c2nc3ncccc3o2)c1)c1ccoc1               µM               65

Then this compound:
IC50 for O=C(Nc1ccc(Cl)c(-c2nc3ncccc3o2)c1)c1cscn1 is 235

* * *

# TEST_SUMMARY: Partition coefficient, log D of the compound at pH 7.4 by HPLC analysis
# Type: physicochemical
# RUN_PARAMETERS: octanol/water
MEASURED_QUANTITY: logD

In [3]: df
Out[3]:
                               smiles_input  recorded_number
0    Cc1ccc(NC(=O)c2ccoc2)cc1-c1nc2ncccc2o1              2.7
1  Cc1ccoc1C(=O)Nc1ccc(F)c(-c2nc3ncccc3o2)c1              2.9
2  O=C(Nc1ccc(F)c(-c2nc3ncccc3o2)c1)c1cnco1              1.7
3   Cc1ccc(NC(=O)c2occc2C)cc1-c1nc2ncccc2o1              3.3
4  O=C(Nc1ccc(Cl)c(-c2nc3ncccc3o2)c1)c1ccco1              2.7
5  O=C(Nc1ccc(F)c(-c2nc3ncccc3o2)c1)c1cscn1              2.3
6    Cc1ccoc1C(=O)Nc1cccc(-c2nc3ncccc3o2)c1              2.9
7  O=C(Nc1ccc(F)c(-c2nc3ncccc3o2)c1)c1ccoc1              2.4

* * *

# System: L6
# TEST_SUMMARY: Cytotoxicity against rat L6 cells after 70 hrs by Alamar blue assay
# Assay type: cell-based
# RUN_PARAMETERS: L6, 70 h
MEASURED_QUANTITY: pEC50
Interpret pEC50 as the negative base-10 log of the concentration measured in mol/L.

Entry COc1cc([C@@H]2c3cc4c(cc3[C@H](O)[C@H]3COC(=O)[C@H]23)OCO4)cc(OC)c1OC [PODOFILOX] — recorded pEC50 = 7.77

* * *

# TEST_SUMMARY: Selectivity index, ratio of IC50 for HEK293 cells to IC50 for Trypanosoma brucei brucei 427 bloodstream form
# Assay type: toxicity, cell-based
# RUN_PARAMETERS: human, read-out: Ratio IC50
MEASURED_QUANTITY: selectivity ratio
I only need the number, thanks.

Please review the following examples before continuing.
>>> print(df.to_string())
                               smiles_input  recorded_number
0  O=C(Nc1cccc(-c2nc3ncc(-c4ccc(Cl)cc4)cc3o2)c1)c1ccco1              150
1  Cc1ccoc1C(=O)Nc1ccc(F)c(-c2nc3ncccc3o2)c1              840
2  O=C(Nc1ccc(Cl)c(-c2nc3ncccc3o2)c1)c1ccccn1               15
3  O=C(Nc1ccc(Cl)c(-c2nc3ncccc3o2)c1)c1ccccc1               54
4    O=C(Nc1cc(-c2nc3ncccc3o2)ccc1F)c1ccco1               13
5  O=C(Nc1ccc(F)c(-c2nc3ncccc3o2)c1)c1ccco1              290

// field: selectivity ratio; key: O=C(Nc1ccc(Cl)c(-c2nc3ncccc3o2)c1)c1ccoc1 ; value = 160

Memo: O=C(Nc1ccc(F)c(-c2nc3ncccc3o2)c1)c1ccoc1 , reported selectivity ratio: 680

Query O=C(Nc1cccc(-c2nc3ncccc3o2)c1)c1cnco1 yields selectivity ratio of 29
